experiment: polyglutamine-triggered caspase-3 activation inhibitors, cell-based (AID 1583); settings: polyglutamine-induced caspase-3 activation, cell assay; stronger effect = higher value;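 tested at 10 µM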

{"compound": "C[C@@H]1CC2C3C[C@H](F)C4=CC(=O)C=C[C@]4(C)[C@@]3(F)[C@@H](O)C[C@]2(C)[C@@]1(O)C(=O)COC(=O)C(C)(C)C (stereo not given in full)", "resultUnits": "%", "inhibition": -23.2}
{"compound": "C#C[C@]1(O)CCC2C3CCC4=C(CCC(=O)C4)C3CC[C@@]21C (stereo not given in full)", "resultUnits": "%", "inhibition": -10.6}
{"compound": "C[C@]12CCC3c4ccc(O)cc4CCC3C1CC[C@@H]2OC(=O)CCC1CCCC1 (stereo not given in full)", "resultUnits": "%", "inhibition": 30.9}
{"compound": "C[C@]12CCC3c4ccc(O)cc4CCC3C1CC[C@@H]2O (stereo not given in full)", "resultUnits": "%", "inhibition": 29.2}
{"compound": "N.N.O=C(O)C1(C(=O)O)CCC1.[Pt]", "resultUnits": "%", "inhibition": -4.65}

###

tested on: F380Y/beta2Delta; assay: modulators of BK channel variants, profiling panel, selectivity assay, cell-based, U2OS BacMam, thallium flux, beta subunits (AID 1259406); conditions: at 30 µM;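 also: initial slope of Thallos dye fluorescence rise after thallium is added; log ratio against the mean of 0.3% DMSO vehicle wells on the same plate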
Calls of active or inactive are those of the source.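 How the source made its calls: active means thallium flux through the channel raised or lowered by more than 3 SD from vehicle-only wells, actives on both sides; inactive means the rest.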
Outcome codes: Y (active), N (inactive)

{"smilesString": "Cc1ccc(I)cc1[N+](=O)[O-]", "cat": "N"}
{"smilesString": "FC(F)(F)c1cc(C=Cc2noc(-c3ccc(CN4CCCC4)cc3)n2)cc(C(F)(F)F)c1", "cat": "N"}
{"smilesString": "O=C(CN1CCOCC1)Nc1ccccc1Sc1nccc(C(F)(F)F)n1", "cat": "N"}
{"smilesString": "COc1c(N2C[C@@H]3CCCN[C@@H]3C2)c(F)cc2c(=O)c(C(=O)O)cn(C3CC3)c12", "cat": "N"}
{"smilesString": "CCOC(=O)c1nn(-c2ccc(C(C)(C)C)cc2)c(=O)c(C#N)c1C", "cat": "Y"}

###

assay: HepG2 cytotoxicity, primary screen, cytotoxicity control for P. falciparum antimalarial project, cell-based, ATP luminescence (AID 2303); conditions: HepG2 viability, 24-48 h, at 10 µM, stronger effect = higher value;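 also: 0% = DMSO wells and 100% = digitonin-killed cells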
Lab note - cut at 10% for inhibition: Y if strictly below, N if not.

{"compound": "CN(C)CCNCc1ccc(-c2ccc3c(Nc4ccc(Oc5ccccc5)cc4)ccnc3c2)o1", "cat": "N"}
{"compound": "O=C(C=Cc1ccc(Cl)c(Cl)c1)NCCCCCN1CCC(CCCNS(=O)(=O)c2ccc(F)cc2)CC1", "cat": "N"}
{"compound": "CCN(CCCN1CCCCC1)c1cc(C)nc(Nc2cc(F)cc(F)c2)n1", "cat": "N"}
{"compound": "COc1ccc2nccc([C@@H](O)CN3CCC(NCc4cc5cccc(OCc6ccccc6)c5[nH]4)CC3)c2c1", "cat": "N"}
{"compound": "COc1cccc(Nc2nccc(-c3c(-c4cccc(NC(=O)c5c(F)cccc5F)c4)nn4ccccc34)n2)c1", "cat": "N"}
{"compound": "CC(C)(CNC(=O)[C@H]1CCCCN1)c1nc(-c2ccc(Cl)c(O)c2)c(-c2ccncc2)[nH]1", "cat": "Y"}
{"compound": "CCNc1cc(C(=O)N[C@@H](Cc2ccccc2)[C@H](O)CNCCCc2ccc(OC)cc2)cc(N2CCCC2=O)c1", "cat": "Y"}
{"compound": "CN1CCCN(Cc2cccc(-c3cccc(NS(=O)(=O)c4cccc5cccnc45)c3)c2)CC1", "cat": "N"}
{"compound": "O=C(NC1CCN(Cc2ccccc2O)C1)c1ccc(Cl)c(Cl)c1 (centres undefined)", "cat": "Y"}
{"compound": "CCn1ccc2c(N3CCCCS3(=O)=O)cc(C(=O)N[C@@H](Cc3ccccc3)[C@H](O)CNC(C)(C)c3cccc(C(F)(F)F)c3)cc21", "cat": "Y"}
{"compound": "N=C(N)c1ccc(Nc2nccc(Nc3nc(-c4ccccc4)cs3)n2)cc1", "cat": "N"}
{"compound": "O=C(Nc1cccc(C(F)(F)F)c1)c1ccc(S(=O)(=O)NC2CCN(CC3CCCCC3)CC2)cc1", "cat": "N"}
{"compound": "O=C(O)c1cccnc1Sc1ccc(Cl)cc1", "cat": "Y"}
{"compound": "Cc1c(C(=O)Nc2cc(Sc3ccc(F)cc3)cc([N+](=O)[O-])c2)sc2ncn(Cc3cccc(F)c3)c(=O)c12", "cat": "Y"}
{"compound": "C=CC(C)C1OC(=O)c2cc(OC)cc(OC)c21 (centres undefined)", "cat": "N"}
{"compound": "COc1ccccc1CN1CCC(CNC(=O)c2cc(-c3cccc(C(F)(F)F)c3)cs2)C1 (centres undefined)", "cat": "N"}
{"compound": "Cc1ccc(C2CCN(CCCCNC(=O)c3ccc(NC(=O)c4ccc(Cl)cc4)cc3)CC2)c(OCC(F)(F)F)c1", "cat": "N"}
{"compound": "Oc1cc(-c2nc(-c3ccccc3)[nH]c2-c2ccncc2)ccc1Cl", "cat": "N"}
{"compound": "O=C(NCc1ccc(F)cc1)c1ccc(N2CCN(c3ccncc3)CC2)cn1", "cat": "Y"}
